The following molecules are shown together with reported melting point values.

Below: 5 molecules and their reported melting point.
| molecule | melting point |
| --- | --- |
| COc1cccc(N2CCN(C(=O)CN3C(=O)c4ccccc4C3=O)CC2)c1 [Compound H] | 155 to 156 °C |
| O=C(CN1C(=O)c2ccccc2C1=O)N1CCN(c2ccccc2)CC1 [E] | 180 °C |
| COc1ccccc1N1CCN(CN2C(=O)c3ccccc3C2=O)CC1 [B] | 134 to 135 °C |
| O=C1c2ccccc2C(=O)N1CN1CCN(C(c2ccccc2)c2ccccc2)CC1 [Compound D] | 206 to 207 °C |
| COc1ccccc1N1CCN(C(=O)CN2C(=O)c3ccccc3C2=O)CC1 [G] | 152 to 154 °C |

We next turn to a different molecule, shown below.
[Q] Item O=C1c2ccccc2C(=O)N1CN1CCN(c2cccc(C(F)(F)F)c2)CC1 [Compound C] has what recorded melting point?
[A] 147 to 148 °C
